# Target Entity: Pancreatic Amylase (Homo sapiens, UniProt P04746)
# Sequence (P04746 16-511): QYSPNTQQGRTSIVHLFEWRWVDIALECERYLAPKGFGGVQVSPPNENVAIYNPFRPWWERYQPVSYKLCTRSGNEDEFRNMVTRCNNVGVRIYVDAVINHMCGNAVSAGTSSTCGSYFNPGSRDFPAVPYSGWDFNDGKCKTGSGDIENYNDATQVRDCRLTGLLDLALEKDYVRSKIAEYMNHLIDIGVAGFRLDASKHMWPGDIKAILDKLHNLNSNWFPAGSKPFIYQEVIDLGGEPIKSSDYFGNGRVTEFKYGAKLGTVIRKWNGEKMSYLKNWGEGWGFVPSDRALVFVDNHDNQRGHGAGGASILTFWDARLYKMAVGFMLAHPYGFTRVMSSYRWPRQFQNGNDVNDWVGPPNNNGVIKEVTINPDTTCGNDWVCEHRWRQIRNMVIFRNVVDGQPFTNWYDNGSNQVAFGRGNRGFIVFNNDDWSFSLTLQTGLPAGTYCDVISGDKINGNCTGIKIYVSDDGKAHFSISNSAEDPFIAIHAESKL
# Measurement Notes: Cleavage pattern of substrates on hydrolysis with pancreatic amylase
The entries below are paired with their reported Cleavage Position (% of total) G 2/3.

query: Dear colleague, I am looking for the recorded Cleavage Position (% of total) G 2/3 of the following compound: CC(C)(C)[Si](C)(C)OC[C@H]1O[C@H](O[C@H]2[C@H](O)[C@@H](O)[C@@H](O[C@H]3[C@H](O)[C@@H](O)[C@@H](O[C@H]4[C@H](O)[C@@H](O)[C@@H](O[C@H]5[C@H](O)[C@@H](O)[C@@H](O[C@H]6[C@H](O)[C@@H](O)[C@@H](O[C@H]7[C@H](O)[C@@H](O)[C@@H](Oc8ccc([N+](=O)[O-])cc8)O[C@@H]7CO)O[C@@H]6CO)O[C@@H]5CO)O[C@@H]4CO)O[C@@H]3CO)O[C@@H]2CO)[C@H](O)[C@@H](O)[C@@H]1O [Substrate 1]
result: 13.3 % of total

Others:
query: I am curious: what Cleavage Position (% of total) G 2/3 value has been reported for CC(C)(C)[Si](C)(C)OC[C@H]1O[C@H](O[C@H]2[C@H](O)[C@@H](O)[C@@H](O[C@H]3[C@H](O)[C@@H](O)[C@@H](O[C@H]4[C@H](O)[C@@H](O)[C@@H](O[C@H]5[C@H](O)[C@@H](O)[C@@H](Oc6ccc([N+](=O)[O-])cc6)O[C@@H]5CO)O[C@@H]4CO)O[C@@H]3CO)O[C@@H]2CO)[C@H](O)[C@@H](O)[C@@H]1O [Substrate 3] ?
result: 40.6 % of total

query: Need Cleavage Position (% of total) G 2/3, item O=[N+]([O-])c1ccc(O[C@H]2O[C@H](CO)[C@@H](O[C@H]3O[C@H](CO)[C@@H](O[C@H]4O[C@H](CO)[C@@H](O[C@H]5O[C@H](CO)[C@@H](O[C@H]6O[C@H](CO)[C@@H](O[C@H]7O[C@H](CO)[C@@H](O[C@H]8O[C@@H]9COC(c%10ccccc%10)O[C@H]9[C@H](O)[C@H]8O)[C@H](O)[C@H]7O)[C@H](O)[C@H]6O)[C@H](O)[C@H]5O)[C@H](O)[C@H]4O)[C@H](O)[C@H]3O)[C@H](O)[C@H]2O)cc1 (stereo partly shown) [Substrate 2]
result: 63.1 % of total

query: Query (compound): O=[N+]([O-])c1ccc(O[C@H]2O[C@H](CO)[C@@H](O[C@H]3O[C@H](CO)[C@@H](O[C@H]4O[C@H](CO)[C@@H](O[C@H]5O[C@H](CO)[C@@H](O[C@H]6O[C@@H]7COC(c8ccccc8)O[C@H]7[C@H](O)[C@H]6O)[C@H](O)[C@H]5O)[C@H](O)[C@H]4O)[C@H](O)[C@H]3O)[C@H](O)[C@H]2O)cc1 (stereo partly shown) [Substrate 4] ; field requested: Cleavage Position (% of total) G 2/3
result: 19.4 % of total
